- procedure_summary: PET hydrolysis, aromatic products released after 48 h (umol product/mg enzyme); higher = more PET depolymerization activity
- condition: substrate: cryPow; 40 °C; pH 5.5
property: PET hydrolysis
# respond with the number and nothing more

Lookup: Using known records, supply PET hydrolysis for AETTTQHGPDPTEGSITAPTGPFQTDQKTVPRSSVQGFGGGTIYYPTETSQGTFGAVTIAPGYTAGKESLAWLGPRLASQGFVVFTIDTITTSDQPDSRAKQLMASLDYLTGDSDVRDRIDTSRLAVMGHSMGGGGTLEAARDNRNLKAAIPMTPWDTTKDFSGVQTPTLIIGAQNDTIAPVAQHAKPFYGSLPDDPGKAYLELAGASHFAPNQDNTTIAKSSIAWLKRFVDDDTRYDQFLCPPPQDAEISDYQSTCPY [TEP037]
Found: 5

====

Reported melting temperature by item:
- procedure_summary: melting temperature (DSF); higher = more thermostable
Give the value, in units of C, as a plain number.

| biosequence | unit_of_measurement | melting temperature |
| --- | --- | --- |
| ADNPYERGPDPTERSIEAARGPFGVSTERVGSLGVSDFGGATIYHPTDRSQTYGAIAISPGFTAGWTSLSWLGERLASQGFVVIGIDTITRLDQPGSRGRQLLAALDYATTRSNARALIDAQRLAVAGHSMGGGGTLEAAAERPSLKAAIPLAPWNLDKSWAEVRTPTLIIGGESDNIAAVNTHSIPFYNSLSNAREKAYMEIDNGTHFFPNTANTLMAKYMISWMKRYIDDDTRYEQFLCPPPDDRGISEYRHTCPGS [DP088] | C | 43.9 |

Then this sequence:
Lookup: Using known records, supply melting temperature for QAPDRTALARTGPYQVAYYTQLPPAAEFSAATLFFPANKAQAFGGVVIAPGYTEKQVNVQWWGYHLASHGYAVLVLDTNDPEEYPDRRADALMAGVAVLRGENTRMGSTLRGKILEGRIALMGHSMGGGGTLLAANGHSDQLKTIIPFTPWLPGADFSAVSVPTLVLAGEIDRIAAVKDHAWPHYESLTGAVPRMYLEVKGGNHYIANSMTDREDRNPNIDVHDLVGSMVVAWLKTFLDDDESYRELVFGDLPEADRVRISRLEFVE [TEP006]
Found: 53.5

====

- procedure_summary: PET hydrolysis, aromatic products released after 48 h (umol product/mg enzyme); higher = more PET depolymerization activity
- condition: substrate: aFilm; 40 °C; pH 5.5
property: PET hydrolysis

Lookup: Using known records, supply PET hydrolysis for ANPYERGPNPTQALLEARSGPFSVSSERAWRLGSDGFGGGTIYYPRENNTYGAVAISPGYTGTQASVAWLGERIASHGFVVITIDTNTTLDQPDSRADQLEAALDHMVDGASSTVRSRIDRNRLAVMGHSMGGGGTLRLASQRPDLKAAIPLTPWHLNKSWSNVQVPTLIIGADLDTIAPVLTHAEPFYNSIPTSTRKAYLELDGATHFAPNITNSTIGMYSVAWLKRFVDEDTRYTQFLCPGPRTGLFSDVEEYRSTCPF [TEP014]
Found: < 3

====

- procedure_summary: PET hydrolysis, aromatic products released after 48 h (umol product/mg enzyme); higher = more PET depolymerization activity
- condition: substrate: cryPow; 40 °C; pH 6.5
Reported PET hydrolysis by item:

| biosequence | PET hydrolysis |
| --- | --- |
| ADNPYQRGPDPTRTSVATERGPFANTSVSVPSGYGFNGGRIYYPTDTSQGTFGAIAISPGYTALFSAELAWMGPWLASHGFVVIGIETNSRNDFDTARGTQLLAALDYLTQQSPVRDRIDPNRLAVSGHSMGGGGALSAAMRRSSLKAVVGIAPYSPSSNLANDRVPTMIFSGQADTVVTPSYAMGLYNSIPAGTKSAYLEVAGGDHGFMVGRSNPVLIRTMLPFLKIFIDNDARYSQFLCPLLDNSGVVTYRSTCPFLPTTPTTPPPTG [ESM065] | 7 |

Then this sequence:
Lookup: Using known records, supply PET hydrolysis for GSLAHIVMVDAYKPTKGSGASQTNPYARGPNPTAASLEASAGPFTVRSFTVSRPSGYGAGTVYYPTNAGGTVGAIAIVPGYTARQSSIKWWGPRLASHGFVVITIDTNSTFDYPSSRSSQQMAALRQVASLNGDSSSPIYGKVDTARMGVMGHSMGGGASLRSAANNPSLKAAIPQAPWDSQTNFSSVTVPTLIFACENDSIAPVNSHALPIYDSMSRNAKQFLEINGGSHSCANSGNSNQALIGKKGVAWMKRFMDNDTRYSTFACENPNSTAVSDFRTANCSLEGSGGSGAHIVMVDAYKPTK [TEP004]
Found: 62

Ref: the supplement of paper PMC12455559
